Organism: Homo sapiens
Test: To identify inhibition of the IFN signalling (Jak-Stat) pathway via expression of an eGFP reporter gene under the control of an IFN-stimulated response element (ISRE) containing MxA promoter.
Assay type: functional
Set-up: scale not given: direction of the effect not stated beside the values
Details: 30 µM
Binary call on Percent Effect with cut-off 10%: strictly below means rule met, and equality or higher means rule not met.

Could you please tell me whether Percent Effect recorded for `COC(=O)CCc1c(C)nc2cc(O)nn2c1C` is less than 10%? rule met

Could you please tell me whether Percent Effect recorded for COCCNC(=O)CN1CCN(c2nc(C)cs2)C(C)C1 (stereo unspecified) is less than 10%? rule met

Could you please tell me whether Percent Effect recorded for `CCOc1ccnc(N2CCN(C(=O)c3cc(Cl)c[nH]3)CC2)n1` is less than 10%? rule met

Could you please tell me whether Percent Effect recorded for `CC(C)c1cc(NC(=O)c2ccc(C(=O)NC(C)(C)C)cc2)[nH]n1` is less than 10%? rule not met

Could you please tell me whether Percent Effect recorded for `CN(C)c1ccc(C(=O)NCC2(c3ccccc3)CCOCC2)cc1` is less than 10%? rule met

Could you please tell me whether Percent Effect recorded for CC1CN(c2ccc(CNC(=O)c3ccn(C)c(=O)c3)cn2)CCO1 (stereo unspecified) is less than 10%? rule met

Could you please tell me whether Percent Effect recorded for COc1ccc(COCC(O)CNC(=O)c2cc(C)cc(C)c2)cc1 (stereo unspecified) is less than 10%? rule met

Could you please tell me whether Percent Effect recorded for CC(C)c1ccc(C(O)Cn2c(=O)c(C#N)cn(C3CC3)c2=O)cc1 (stereo unspecified) is less than 10%? rule met

Could you please tell me whether Percent Effect recorded for `NC(=O)CC1CCN(C(=O)NCc2ccccc2-n2cccn2)CC1` is less than 10%? rule not met

Could you please tell me whether Percent Effect recorded for NC(=O)c1ccc(CN2CCCC(N3CCCC3)C2)cc1 (stereo unspecified) is less than 10%? rule met

Could you please tell me whether Percent Effect recorded for CNS(=O)(=O)c1cc(C(=O)NC2CCOc3ccccc32)cc(C)c1C (stereo unspecified) is less than 10%? rule met

* * *

Give Percent Effect for every item shown.
Target: Arginase-2, mitochondrial (Homo sapiens) (UniProt P78540)
Sequence (P78540 whole entry): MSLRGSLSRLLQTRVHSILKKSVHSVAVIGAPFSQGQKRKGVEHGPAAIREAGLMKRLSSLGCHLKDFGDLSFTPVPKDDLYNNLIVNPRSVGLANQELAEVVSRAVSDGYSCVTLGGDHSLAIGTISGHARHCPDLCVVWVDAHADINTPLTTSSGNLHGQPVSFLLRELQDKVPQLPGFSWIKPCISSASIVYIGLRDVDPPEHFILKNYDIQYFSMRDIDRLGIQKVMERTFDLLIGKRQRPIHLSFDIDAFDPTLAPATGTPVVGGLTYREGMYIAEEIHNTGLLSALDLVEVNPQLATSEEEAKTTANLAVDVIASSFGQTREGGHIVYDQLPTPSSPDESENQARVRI
Test: in vitro enzyme assay to detect the production of urea directly proportional to the activity of Arginase II; also: in the data most compounds retested in dose-response had high values
Assay type: functional
Set-up: scale not given: direction of the effect not stated beside the values
Conditions: 33.3 µM
The reply should contain only the number, in %.

Name the recorded Percent Effect for `Fc1cccnc1OC[C@@]12CCO[C@@H]1CCN(CC1CCOCC1)C2` . -0.744

Name the recorded Percent Effect for `Cc1nc(C2CCN(C(=O)CO)CC2)cc(N2CCOCC2)n1` . 22

Name the recorded Percent Effect for `CC(=O)N1C[C@@H](c2ccsc2)[C@@H]2CN(Cc3cccc(Cl)c3)CC[C@@H]21` . 7.08

Name the recorded Percent Effect for `COc1ncc(C2(O)CCN(Cc3cccs3)CC2)c(OC)n1` . -3.54

Name the recorded Percent Effect for c1cnc(-c2nc(CN3CCOC(Cn4cncn4)C3)cs2)nc1 (stereo not drawn) . -12.8

Name the recorded Percent Effect for `CSCC(=O)N1C[C@H]2CC[C@@H]1CN(Cc1ccccc1)C2` . 0.455

Name the recorded Percent Effect for `COc1c(CNCc2ccnc(N3CCCC3)c2)c(C)nn1C` . -0.215

Name the recorded Percent Effect for `CCCN1CCC(NC(=O)NCCc2nc(CC)c(C)s2)CC1` . 33.3

Name the recorded Percent Effect for Cc1nn(C)c(C)c1C(C)NC(=O)Nc1cccnc1N1CCCC1 (stereo not drawn) . 0

Name the recorded Percent Effect for `COc1cccc(S(=O)(=O)CCN2CCCCC2)c1` . 1.56

Name the recorded Percent Effect for `Cc1cccc(C)c1NC(=O)CCNC(=O)c1ccoc1` . 0.21

Name the recorded Percent Effect for `Cc1cccc(OCCC(=O)N2CCCN(C(N)=O)CC2)c1C` . 3.8

Name the recorded Percent Effect for Cn1cnc2c1C(COCC1CC1)CN(Cc1ccsc1)C2 (stereo not drawn) . 7.1

Name the recorded Percent Effect for Cc1nc(C)n(CC2CCCCN2Cc2ncc(C(C)(C)C)o2)n1 (stereo not drawn) . -2.13

Name the recorded Percent Effect for Cc1cc(C)n(CC2CCCN2Cc2c(C)noc2C)n1 (stereo not drawn) . -0.802

Name the recorded Percent Effect for COc1cccc(C2CC(=O)Nc3nc(N)sc32)c1OC (stereo not drawn) . 21.3

Name the recorded Percent Effect for `CCC1=N[C@@]2(CC[C@@H]3CN(C(=O)NC(C)C)C[C@@H]32)C(=O)N1C` . 2.92

Name the recorded Percent Effect for Cn1ccc(C(=O)NC2CCC23CCN(Cc2cccnc2)CC3)c1 (stereo not drawn) . 0.399

Name the recorded Percent Effect for CC(NC(=O)N1CCCN(Cc2cccs2)CC1)c1cccnc1 (stereo not drawn) . 10.3

Name the recorded Percent Effect for `Cc1nsc(NC(=O)N2CCN(Cc3ccc(F)cc3)C(=O)C2)n1` . 3.85

Name the recorded Percent Effect for `CC1=N[C@@]2(CC[C@@H]3CN(S(=O)(=O)N(C)C)C[C@@H]32)C(=O)N1CC(C)C` . 4.78

Name the recorded Percent Effect for `Cc1ccc2c(n1)N(Cc1cccnc1)CCN(C(=O)C1CCC1)C2` . 7.29

Name the recorded Percent Effect for `CC(=O)N1CCN(C(=O)c2cc(-n3cnnn3)ccc2Cl)CC1` . -4.73
